Test system: SNB-75 CNS
Assay: NCI-60 one-dose screen, 48 h (100 = growth as untreated, 0 = no growth, -100 = all killed)
Conditions: 10 µM unless noted
Experimental: Growth inhibition of the SNB-75 human tumor cell line is measured as a screen for anti-cancer activity. Cells are grown in 96 well plates and exposed to the test compound for 48 hours. Compounds are tested at a single concentration, which is 10^-5 M for most compounds. The reported endpoint is percent growth (GI% or GIPRCNT), where numbers from 0 - 100% represent growth inhibition, and numbers from -100% - 0 represent cell death. For example, a value of 40 represents 60% growth inhibition. […]
Compounds without any hit were thinned out: in the full panel of roughly 83,000, 20% have a hit.
Below, each entry is listed with its recorded growth.
The figure you give is taken to be in %; do not add the unit.

// solved cases for growth follow
| structure_string | growth [%] |
| --- | --- |
| C=C1c2nc3ccccc3n2C=C(c2ccc(Cl)cc2)N1Cc1ccc(OC)cc1 | 103 |
| O=c1c2c3c(sc2nc(N/N=C/c2cn(-c4ccccc4)nc2-c2ccc(Cl)cc2)n1Cc1ccccc1)CCCC3 | 102 |
| O=C(CCl)Oc1ccc(-c2ccccc2)c(Br)c1 | 95.6 |

Please state recorded growth (tested on SNB-75 CNS) of CC(C)(C)c1cc(C(C)(C)C)cc(S(=O)(=O)Nc2cc3ccccc3cc2C(=O)NCCN)c1
63.4

// repeat for COc1cccc(-c2nn(C(C)(C)C)cc2-c2ccnc(NCCCNS(=O)(=O)c3ccc(C)cc3)c2)c1 and report
69.8

// repeat for CCCOc1ccc2nc(NC(=O)OC)[nH]c2c1 and report
46.1

----------
system: UACC-257 melanoma; assay: NCI-60 one-dose screen, 48 h; settings: 10 µM unless noted
Compounds without any hit were thinned out: in the full panel of roughly 83,000, 20% have a hit. Calls of active or inactive are those of the source. Rule for the calls: active = growth percent below 10; inactive = the rest.
Please reply with one of these outcomes: active, inactive

| molecule | group_label |
| --- | --- |
| OCCN1CCN(c2nc(Nc3ccc(-c4nc5ccccc5[nH]4)cc3)c3cn[nH]c3n2)CC1 | active |
| O=[N+]([O-])c1ccc(Nc2nc(NCCN3CCOCC3)ncc2[N+](=O)[O-])cc1 | inactive |
| c1csc(C2=NN3C(C2)c2ccccc2OC3c2ccncc2)c1 (stereo unspecified) | inactive |
| COc1cc(-c2nn(-c3ccc(C)cc3)cc2C(=O)O)ccc1O | inactive |

Which outcome was entered for the molecule Cc1c(/C=C/[N+](=O)[O-])ccc2c1[nH]c1ccccc12 in this test?
inactive

// repeat for O=C1NC(=O)C(c2ccc(Cl)cc2Cl)N1 (stereo unspecified) and report
inactive

// repeat for COC(=O)[C@@H]1CCCN1C(=O)[C@@H]1CCCN1C(=O)[C@H](Cc1ccccc1)NC(=S)Nc1cc(C(F)(F)F)cc(C(F)(F)F)c1 and report
inactive

// repeat for COc1ccc(S(=O)(=O)N2CCCCCC2)cc1NC(=O)c1[nH]c(C)c2c1CCCCC2=O and report
inactive

// repeat for NNCCc1ccc(NC(=O)CCCc2ccc(/C=C/C(=O)NO)cc2)cc1 and report
inactive

// repeat for COc1ccc(NC2=C(Sc3nc(C)cc(C)n3)C(=O)N(Cc3ccccc3)C2=O)cc1Cl and report
inactive

// repeat for C/C1=C\CC[C@@]2(C)O[C@H]2[C@H]2OC(=O)C(CN3CCN(CC4C(=O)O[C@H]5[C@H]4CC/C(C)=C/CC[C@@]4(C)O[C@@H]54)CC3)[C@@H]2CC1 (stereo partly specified) and report
inactive

----------
tested on: NCI-H23 lung; experiment: NCI-60 one-dose screen, 48 h; conditions: 10 µM unless noted
The panel holds about 83,000 compounds, 20% with a hit somewhere; the sample as a whole holds those more often. Activity calls are given as the source filed them. The calls were made as follows: active = growth percent below 10; inactive = the rest.
Please reply with one of these outcomes: class 1 for active, class 0 for inactive

| structure_string | group_label |
| --- | --- |
| Cc1ccc(NC(=O)/C=C/c2ccccc2)c(C(N)=O)c1 | class 0 |
| CN(C)[C@@H]1C(=O)C(C(=O)NCc2nc3[nH]cnc(=S)c3[nH]2)=C(O)[C@@]2(O)C(=O)C3=C(O)c4c(O)cccc4[C@@](C)(O)[C@H]3C[C@@H]12 | class 0 |
| Nc1nc2ccc3[nH]ncc3c2c2c1CCCC2 | class 1 |
| COc1ccc2c(c1)C(=O)/C(=C/c1cccnc1)CC2 | class 0 |

Which outcome was entered for the compound CN1CCN(c2nc(NCCCNc3ccnc4cc(Cl)ccc34)c3ccccc3n2)CC1 in this test?
class 0

// repeat for COc1ccc(-n2nc(C)c3c(Nc4ccc(NC(=O)Nc5c(Cl)cccc5Cl)cc4)ncnc32)cc1 and report
class 0

----------
system: NCI-H460 lung; experiment: NCI-60 one-dose screen, 48 h (100 = growth as untreated, 0 = no growth, -100 = all killed); conditions: 10 µM unless noted
The panel holds about 83,000 compounds, 20% with a hit somewhere; the sample as a whole holds those more often.
Below, each entry is listed with its recorded growth.
The figure you give is taken to be in %; do not add the unit.

// solved cases for growth follow
| compound | readout_unit | observed |
| --- | --- | --- |
| Cc1cc(N[C@@H]2CCC[C@H](Nc3ccnc4cc(Cl)ccc34)C2)nc(N2CCCCCC2)n1 | % | -70.9 |
| CCOC(=O)c1c(C(=O)OCC)c2cc(-c3ccn4c(C(=O)c5ccccc5)c(C(=O)OCC)c(C(=O)OCC)c4c3)ccn2c1C(=O)c1ccccc1 | % | 98.3 |
| CNc1ccc(-c2cc(=O)oc3ccc(Cl)cc23)cc1 | % | 6.78 |
| COc1cccc(/C=N/NC(=O)c2ccccc2Nc2ccnc(C(F)(F)F)c2)c1O | % | -6.96 |
| COc1cccc2c1C(=O)c1c(O)c3c(c(O)c1C2=O)C[C@](O)(C(=O)CO)C[C@H]3O[C@@H]1C[C@@H](NC(=O)CCCCCN(C)C2(c3ccc(F)cc3)CC3CCC2C3)[C@H](O)[C@@H](C)O1 (stereo partly drawn) | % | -84.2 |
| CC/C=C\C[C@H](O)C/C=C1/C(=O)C=C[C@@]1(C)C/C=C\CCCC(=O)OC | % | 110 |
| COc1ccc(/C=C/C(=O)c2cc(O)ccc2O)cc1 | % | 96.6 |

Let us move to another entry and its growth.
Consider the compound shown here: OC(c1cc2cc(Cl)c(Cl)cc2c2cc(C(F)(F)F)ccc12)C1CCCCN1 (stereo not drawn) What is its recorded growth?
-71.8

----------
tested on: SF-295 CNS; test: NCI-60 one-dose screen, 48 h (100 = growth as untreated, 0 = no growth, -100 = all killed); conditions: 10 µM unless noted
About 83,000 compounds went through this panel and 20% of them were active in at least one assay; those are over-represented in the sample as a whole.
value_kind: growth (%)
The figure you give is taken to be in %; do not add the unit.

// solved cases for growth follow
| structure_string | readout_unit | growth |
| --- | --- | --- |
| N#Cc1c(-c2ccc(Cl)cc2)nc(N=Nc2c(O)[nH]c3ccc(Cl)cc23)nc1N1CCOCC1 | % | 102 |
| Cc1cc(C)c2nc3nc(C)cc(C)c3c(N)c2c1 | % | 29.6 |
| CCc1c(Nc2ccccc2C)nc(N)[nH]c1=O | % | 105 |
| Cn1cc(-c2nonc2-c2c[nH]c3ccccc23)c2cccnc21 | % | 51.4 |
| O=C(/C=C/c1cccc(Cl)c1)c1ccc(O)c(CN2CCN(c3cc4c(cc3F)c(=O)c(C(=O)O)cn4C3CC3)CC2)c1 | % | 43.5 |

Please state recorded growth (tested on SF-295 CNS) of CC/C=C\C[C@H](O)C/C=C1/C(=O)C=C[C@@]1(C)C/C=C\CCCC(=O)OC
107

----------
test system: NCI-H226 lung; assay: NCI-60 one-dose screen, 48 h (100 = growth as untreated, 0 = no growth, -100 = all killed); settings: 10 µM unless noted
Compounds without any hit were thinned out: in the full panel of roughly 83,000, 20% have a hit.
value_kind: growth (%)
The figure you give is taken to be in %; do not add the unit.

// solved cases for growth follow
| compound | value_kind | observed |
| --- | --- | --- |
| Clc1ccc2c(NCCNc3nc(N4CCCCC4)nc4ccccc34)ccnc2c1 | growth | -8.68 |
| COc1ccc(/C=C/C(=O)c2ccc(O)c(CN3CCN(c4cc5c(cc4F)c(=O)c(C(=O)O)cn5C4CC4)CC3)c2)cc1 | growth | 52.2 |
| C=C1C(=O)O[C@H]2[C@H]1CC/C(C=Nc1ccc(C(F)(F)F)cc1N)=C\CC[C@@]1(C)O[C@@H]21 | growth | 42.5 |
| COC[C@H](C)n1c(C2CCOCC2)nc2cnc3cc(-c4c(C)noc4C)c(OC)cc3c21 | growth | 67 |
| Cc1ccc(/C=C2\SC(=S)N(CC(=O)NCCCN3CCOCC3)C2=O)cc1 | growth | 91 |

Consider the compound shown here: COc1cc(/C=C/c2cc(/C=C/c3ccc(O)c(OC)c3)n(-c3c(Cl)cccc3Cl)c(=O)n2)ccc1O What is its recorded growth?
48.8

// repeat for CC(C)(O)c1cn(CCCCN2C(=O)C(=O)c3ccccc32)nn1 and report
94.8
